molecular target: HLA-A*0201 (human)
pIC50: −log10 of the molar value.

{"Binder": "KVTEFMLCAGV [peptide 1418.71, HuK2.191.V11]", "pIC50": 7.25}
